TGT: T1, human glycophorin A in the red blood cell membrane (human, UniProt P02724 20-150)
T1 construct: whole, on cells; used for intact RBC, isolated RBC membranes and transfected cells; the assay field tells which; also called GPA; hGPA
T1 sequence (looked up): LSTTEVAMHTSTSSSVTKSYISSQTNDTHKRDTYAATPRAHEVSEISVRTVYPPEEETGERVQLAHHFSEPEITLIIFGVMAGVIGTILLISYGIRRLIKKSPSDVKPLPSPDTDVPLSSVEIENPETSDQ
EXPERIMENTAL_DETAILS: ELISA, human RBC membranes;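 further: antibodies bound to isolated human red blood cell membrane ghosts coated on 96-well plates, tested 1.5 h at room temperature, bound antibody quantified with a detection antibody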
ASSAY_READOUT: binding by ELISA relative to parental
// keep it numeric: no unit symbol after the value

Example entries begin here.
[
  {
    "BINDER": "TPP-5335 (Fab, V domains shown, also called VH: (Q97A)) VH: EVQLVQSGAEVKKPGASVKVSCKASGYTFTTYTIHWVRQAPGQGLEWIGYINPSSDYTRYNPKFKDRVTLTTDKSTSTAYMELRSLRSDDTAVYYCATGTRDYWGQGTTVTVSS VL: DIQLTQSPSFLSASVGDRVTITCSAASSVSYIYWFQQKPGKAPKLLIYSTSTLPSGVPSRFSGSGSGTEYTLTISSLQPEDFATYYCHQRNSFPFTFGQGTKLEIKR",
    "MEASURED_RESULT": 0.65
  },
  {
    "BINDER": "TPP-5322 (Fab, V domains shown, also called VH: (S55G)) VH: EVQLVQSGAEVKKPGASVKVSCKASGYTFTTYTIHWVRQAPGQGLEWIGYINPSGDYTRYNPKFKDRVTLTTDKSTSTAYMELRSLRSDDTAVYYCQTGTRDYWGQGTTVTVSS VL: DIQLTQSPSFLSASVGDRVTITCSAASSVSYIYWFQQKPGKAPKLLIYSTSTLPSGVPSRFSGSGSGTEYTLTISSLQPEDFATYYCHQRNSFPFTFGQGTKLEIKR",
    "MEASURED_RESULT": 0.82
  },
  {
    "BINDER": "TPP-5329 (Fab, V domains shown, also called VH: (D66G)) VH: EVQLVQSGAEVKKPGASVKVSCKASGYTFTTYTIHWVRQAPGQGLEWIGYINPSSDYTRYNPKFKGRVTLTTDKSTSTAYMELRSLRSDDTAVYYCQTGTRDYWGQGTTVTVSS VL: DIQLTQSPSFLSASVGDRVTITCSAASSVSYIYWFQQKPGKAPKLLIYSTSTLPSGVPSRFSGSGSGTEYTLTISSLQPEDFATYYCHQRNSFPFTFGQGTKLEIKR",
    "MEASURED_RESULT": 1
  },
  {
    "BINDER": "TPP-5352 (Fab, V domains shown, also called VL: (H88Q)) VH: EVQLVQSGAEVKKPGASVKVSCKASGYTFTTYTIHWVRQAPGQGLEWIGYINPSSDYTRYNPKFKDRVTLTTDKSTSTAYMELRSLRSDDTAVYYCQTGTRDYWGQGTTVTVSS VL: DIQLTQSPSFLSASVGDRVTITCSAASSVSYIYWFQQKPGKAPKLLIYSTSTLPSGVPSRFSGSGSGTEYTLTISSLQPEDFATYYCQQRNSFPFTFGQGTKLEIKR",
    "MEASURED_RESULT": 0.34
  }
]

TPP-5343 (Fab, V domains shown, also called VL: (S28G)) VH: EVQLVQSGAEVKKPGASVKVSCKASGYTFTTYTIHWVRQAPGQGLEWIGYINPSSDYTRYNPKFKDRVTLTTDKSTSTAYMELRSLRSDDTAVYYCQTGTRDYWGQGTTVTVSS VL: DIQLTQSPSFLSASVGDRVTITCSAASGVSYIYWFQQKPGKAPKLLIYSTSTLPSGVPSRFSGSGSGTEYTLTISSLQPEDFATYYCHQRNSFPFTFGQGTKLEIKR has a reported binding by ELISA relative to parental of 0.71

Data credit: patent US20190359687A1
